Values compiled from paper PMC7170889.

target: PKCα (Homo sapiens, UniProt P17252); construct: purchased Invitrogen; assay: PKC competitive binding assay with [3H]-phorbol dibutyrate (PKCα); settings: cell-free, competition with [3H]-PDBu, PS vesicles; read-out: Ki PKCα
# Lookup of reported log10 Ki keyed by entry
Could you please treat all values as log10 of Ki in nM?

Some compounds with recorded log10 Ki:
CCCC=CC=CC(=O)OC1C(=CC(=O)OC)CC2CC(C(C)O)OC(=O)CC(O)CC3CC(OC(C)=O)C(C)(C)C(O)(CC4CC(=CC(=O)OCC)CC(C=CC(C)(C)C1(O)O2)O4)O3 (stereo not drawn) [SUW218] ... 0.85
CCCC=CC=CC(=O)OC1C(=CC(=O)OC)CC2CC(C(C)O)OC(=O)CC(O)CC3CC(OC(C)=O)C(C)(C)C(O)(CC4CC(OC(=O)Nc5ccccc5)CC(C=CC(C)(C)C1(O)O2)O4)O3 (stereo not drawn) ... 0.00
CCCC=CC=CC(=O)OC1C(=CC(=O)OC)CC2CC(C(C)O)OC(=O)CC(O)CC3CC(OC(C)=O)C(C)(C)C(O)(CC4CC(=CC(=O)OCC)CC(C=CC(C)(C)C1(O)O2)O4)O3 (stereo not drawn) [SUW217] ... 0.96
CCCC=CC=CC(=O)OC1C(=CC(=O)OC)CC2CC(C(C)O)OC(=O)CC(O)CC3CC(OC(C)=O)C(C)(C)C(O)(CC4CC(OC(=O)CCc5c[nH]c6ccccc56)CC(C=CC(C)(C)C1(O)O2)O4)O3 (stereo not drawn) ... 0.75

Lookup: Lab note: need log10 Ki with PKCα (Homo sapiens, UniProt P17252) for entry CCCC=CC=CC(=O)OC1C(=CC(=O)OC)CC2CC(C(C)O)OC(=O)CC(O)CC3CC(OC(C)=O)C(C)(C)C(O)(CC4CC(=CC(=O)OCc5ccccc5)CC(C=CC(C)(C)C1(O)O2)O4)O3 (stereo not drawn) , please look it up.
Found: 1.57

Lookup: Lab note: need log10 Ki with PKCα (Homo sapiens, UniProt P17252) for entry CCCC=CC=CC(=O)OC1C(=CC(=O)OC)CC2CC(C(C)O)OC(=O)CC(O)CC3CC(OC(C)=O)C(C)(C)C(O)(CC4CC(OC(=O)CC56CC7CC(CC(C7)C5)C6)CC(C=CC(C)(C)C1(O)O2)O4)O3 (stereo not drawn) , please look it up.
Found: 0.20

Lookup: Lab note: need log10 Ki with PKCα (Homo sapiens, UniProt P17252) for entry CCC/C=C/C=C/C(=O)O[C@H]1/C(=C/C(=O)OC)C[C@H]2C[C@H]([C@@H](C)O)OC(=O)C[C@H](O)C[C@@H]3C[C@H](OC(C)=O)C(C)(C)[C@](O)(C[C@@H]4C[C@@H](OC(C)=O)C[C@H](/C=C/C(C)(C)[C@]1(O)O2)O4)O3 , please look it up.
Found: 0.30

Lookup: Lab note: need log10 Ki with PKCα (Homo sapiens, UniProt P17252) for entry CCCC=CC=CC(=O)OC1C(=CC(=O)OC)CC2CC(C(C)O)OC(=O)CC(O)CC3CC(OC(C)=O)C(C)(C)C(O)(CC4CC(OC(=O)CN(C)C)CC(C=CC(C)(C)C1(O)O2)O4)O3 (stereo not drawn) , please look it up.
Found: 1.60

Lookup: Lab note: need log10 Ki with PKCα (Homo sapiens, UniProt P17252) for entry CCCCCC#CC(=O)O[C@H]1/C(=C/C(=O)OC)C[C@H]2C[C@H]([C@@H](C)O)OC(=O)C[C@H](O)C[C@@H]3C[C@H](OC(C)=O)C(C)(C)[C@](O)(C[C@@H]4C[C@H](O)C[C@H](/C=C/C(C)(C)[C@]1(O)O2)O4)O3 , please look it up.
Found: 0.15
